# pIC50 values compiled below
Tgt: Acetylcholinesterase (Electrophorus electricus, UniProt O42275)
Sequence (O42275 whole entry): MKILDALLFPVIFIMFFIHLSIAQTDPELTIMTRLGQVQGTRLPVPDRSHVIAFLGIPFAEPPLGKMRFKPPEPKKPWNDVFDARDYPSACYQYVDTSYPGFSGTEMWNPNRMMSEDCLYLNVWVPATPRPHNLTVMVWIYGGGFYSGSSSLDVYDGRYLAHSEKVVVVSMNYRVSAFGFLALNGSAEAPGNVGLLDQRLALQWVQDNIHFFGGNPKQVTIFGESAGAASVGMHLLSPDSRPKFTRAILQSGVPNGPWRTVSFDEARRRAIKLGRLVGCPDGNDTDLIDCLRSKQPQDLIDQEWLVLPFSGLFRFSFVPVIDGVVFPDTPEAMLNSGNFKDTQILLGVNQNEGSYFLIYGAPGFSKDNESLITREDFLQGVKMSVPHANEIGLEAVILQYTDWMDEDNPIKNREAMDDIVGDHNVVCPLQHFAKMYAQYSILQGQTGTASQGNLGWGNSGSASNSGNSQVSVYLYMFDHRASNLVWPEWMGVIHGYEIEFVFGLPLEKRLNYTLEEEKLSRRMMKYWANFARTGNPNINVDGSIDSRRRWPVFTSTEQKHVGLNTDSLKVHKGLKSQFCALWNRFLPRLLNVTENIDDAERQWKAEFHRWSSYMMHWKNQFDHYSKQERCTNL
Reminder that pIC50 means the negative base-10 logarithm of the concentration expressed in mol/L.

Worked cases, pIC50 given:
INSERT INTO assay_data (smiles_structure, value_observed) VALUES
  ('CN(CCCCCCCN1C(=O)c2ccccc2C1=O)Cc1ccccc1', 6.76),
  ('CN(CCCCCN1C(=O)c2ccccc2C1=O)Cc1cccc(Cl)c1', 6.96),
  ('CN(CCCCCCCCN1C(=O)c2ccccc2C1=O)Cc1ccccc1', 6.86),
  ('CN(CCCCCCN1C(=O)c2ccccc2C1=O)Cc1cccc(Cl)c1', 7.02),
  ('CN(CCCCCCCN1C(=O)c2ccccc2C1=O)Cc1cccc(Cl)c1', 6.30);

Incoming: // pIC50 lookup, key: `CN(CCCCCN1C(=O)c2ccccc2C1=O)Cc1ccccc1`
Outgoing: 7.10

Incoming: // pIC50 lookup, key: `CN(CCCCCCN1C(=O)c2ccccc2C1=O)Cc1ccccc1F`
Outgoing: 7.12

Incoming: // pIC50 lookup, key: `CN(CCCCCCN1C(=O)c2ccccc2C1=O)Cc1ccccc1`
Outgoing: 7.05

Incoming: // pIC50 lookup, key: `CN(CCCCCCCCN1C(=O)c2ccccc2C1=O)Cc1cccc(Cl)c1`
Outgoing: 5.87

Incoming: // pIC50 lookup, key: `CN(CCCCN1C(=O)c2ccccc2C1=O)Cc1ccccc1`
Outgoing: 5.63

Incoming: // pIC50 lookup, key: `O=C1c2ccccc2C(=O)N1Cc1ccc(CNCc2cccc(Cl)c2)cc1`
Outgoing: 5.20

###

Tgt: UniProtKB P81908
Sequence (P81908 whole entry): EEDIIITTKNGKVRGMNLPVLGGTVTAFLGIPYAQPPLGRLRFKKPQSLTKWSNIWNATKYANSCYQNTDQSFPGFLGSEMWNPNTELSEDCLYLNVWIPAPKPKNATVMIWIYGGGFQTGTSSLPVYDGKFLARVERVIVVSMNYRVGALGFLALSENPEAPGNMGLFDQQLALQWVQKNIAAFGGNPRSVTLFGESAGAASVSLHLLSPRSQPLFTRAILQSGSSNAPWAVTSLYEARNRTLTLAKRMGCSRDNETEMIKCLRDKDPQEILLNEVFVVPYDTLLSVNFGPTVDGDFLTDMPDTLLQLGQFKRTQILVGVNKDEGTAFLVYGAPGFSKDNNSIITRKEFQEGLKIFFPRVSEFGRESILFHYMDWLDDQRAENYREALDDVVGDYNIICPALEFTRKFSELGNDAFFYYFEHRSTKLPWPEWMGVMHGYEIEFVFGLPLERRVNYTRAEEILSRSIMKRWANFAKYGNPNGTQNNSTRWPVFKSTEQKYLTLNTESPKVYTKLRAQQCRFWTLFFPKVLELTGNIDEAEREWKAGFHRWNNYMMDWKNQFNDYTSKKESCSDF
# pIC50 values compiled below
Reminder that pIC50 means the negative base-10 logarithm of the concentration expressed in mol/L.

Worked cases, pIC50 given:
INSERT INTO measurements (smiles_structure, tgt, value_observed) VALUES
  ('CN(CCCCCCN1C(=O)c2ccccc2C1=O)Cc1ccccc1F', 'UniProtKB P81908', 4.98),
  ('CN(CCCCCCCCN1C(=O)c2ccccc2C1=O)Cc1ccccc1', 'UniProtKB P81908', 6.27),
  ('CN(CCCCCCCCN1C(=O)c2ccccc2C1=O)Cc1ccccc1F', 'UniProtKB P81908', 5.33);

Incoming: API: value(readout=pIC50, system=UniProtKB P81908) for record `CN(CCCCCCCN1C(=O)c2ccccc2C1=O)Cc1ccccc1`
Outgoing: 6.00

Incoming: API: value(readout=pIC50, system=UniProtKB P81908) for record `CN(CCCCCCN1C(=O)c2ccccc2C1=O)Cc1cccc(Cl)c1`
Outgoing: 5.61

Incoming: API: value(readout=pIC50, system=UniProtKB P81908) for record `O=C1c2ccccc2C(=O)N1Cc1ccc(CNCc2cccc(Cl)c2)cc1`
Outgoing: 5.88

Incoming: API: value(readout=pIC50, system=UniProtKB P81908) for record `CN(CCCCCCCN1C(=O)c2ccccc2C1=O)Cc1ccccc1F`
Outgoing: 5.15

Incoming: API: value(readout=pIC50, system=UniProtKB P81908) for record `O=C1c2ccccc2C(=O)N1Cc1ccc(CNCc2ccccc2F)cc1`
Outgoing: 5.54

Incoming: API: value(readout=pIC50, system=UniProtKB P81908) for record `CN(CCCCCN1C(=O)c2ccccc2C1=O)Cc1cccc(Cl)c1`
Outgoing: 5.23

Incoming: API: value(readout=pIC50, system=UniProtKB P81908) for record `O=C1c2ccccc2C(=O)N1Cc1ccc(CNCc2ccccc2)cc1`
Outgoing: 5.68

Incoming: API: value(readout=pIC50, system=UniProtKB P81908) for record `CN(CCCCCCCN1C(=O)c2ccccc2C1=O)Cc1cccc(Cl)c1`
Outgoing: 5.82

Incoming: API: value(readout=pIC50, system=UniProtKB P81908) for record `CN(CCCCCCCCN1C(=O)c2ccccc2C1=O)Cc1cccc(Cl)c1`
Outgoing: 6.04

###

Reported log10(IC50), UniProtKB O42275.
Recall that a logarithmic scale is used here: each number is log10 of IC50 in µM.

Worked cases, log10(IC50) given:
INSERT INTO measurements (smiles_structure, endpoint_name, value_observed) VALUES
  ('CN(CCCCCCCCN1C(=O)c2ccccc2C1=O)Cc1ccccc1F', 'log10(IC50)', -0.18),
  ('O=C1c2ccccc2C(=O)N1Cc1ccc(CNCc2ccccc2F)cc1', 'log10(IC50)', 0.41),
  ('CN(CCCCCCCN1C(=O)c2ccccc2C1=O)Cc1ccccc1F', 'log10(IC50)', -0.28);

Incoming: // log10(IC50) lookup, key: `CN(CCCCCN1C(=O)c2ccccc2C1=O)Cc1ccccc1F`
Outgoing: -1.17

Incoming: // log10(IC50) lookup, key: `CN(CCCCN1C(=O)c2ccccc2C1=O)Cc1ccccc1F`
Outgoing: 0.18

Incoming: // log10(IC50) lookup, key: `CN(CCCCN1C(=O)c2ccccc2C1=O)Cc1cccc(Cl)c1`
Outgoing: 0.16

###

Reported IC50, Acetylcholinesterase (Homo sapiens, UniProt P22303).
Kindly answer with a numeric value in nM, unit omitted.

Worked cases, IC50 given:
INSERT INTO results (smiles_structure, tgt, endpoint_name, value_observed) VALUES
  ('CN(CCCCCCN1C(=O)c2ccccc2C1=O)Cc1cccc(Cl)c1', 'Acetylcholinesterase (Homo sapiens, UniProt P22303)', 'IC50', 1190),
  ('CN(CCCCCCCCN1C(=O)c2ccccc2C1=O)Cc1ccccc1', 'Acetylcholinesterase (Homo sapiens, UniProt P22303)', 'IC50', 860),
  ('CN(CCCCCCN1C(=O)c2ccccc2C1=O)Cc1ccccc1', 'Acetylcholinesterase (Homo sapiens, UniProt P22303)', 'IC50', 1830),
  ('CN(CCCCCCCN1C(=O)c2ccccc2C1=O)Cc1ccccc1F', 'Acetylcholinesterase (Homo sapiens, UniProt P22303)', 'IC50', 625),
  ('CN(CCCCCN1C(=O)c2ccccc2C1=O)Cc1ccccc1F', 'Acetylcholinesterase (Homo sapiens, UniProt P22303)', 'IC50', 525);

Please look at the following compound next.
Incoming: API: value(readout=IC50, system=Acetylcholinesterase (Homo sapiens, UniProt P22303)) for record `CN(CCCCCN1C(=O)c2ccccc2C1=O)Cc1ccccc1`
Outgoing: 361

###

Tgt: Acetylcholinesterase (Homo sapiens)
Sequence (P22303 whole entry): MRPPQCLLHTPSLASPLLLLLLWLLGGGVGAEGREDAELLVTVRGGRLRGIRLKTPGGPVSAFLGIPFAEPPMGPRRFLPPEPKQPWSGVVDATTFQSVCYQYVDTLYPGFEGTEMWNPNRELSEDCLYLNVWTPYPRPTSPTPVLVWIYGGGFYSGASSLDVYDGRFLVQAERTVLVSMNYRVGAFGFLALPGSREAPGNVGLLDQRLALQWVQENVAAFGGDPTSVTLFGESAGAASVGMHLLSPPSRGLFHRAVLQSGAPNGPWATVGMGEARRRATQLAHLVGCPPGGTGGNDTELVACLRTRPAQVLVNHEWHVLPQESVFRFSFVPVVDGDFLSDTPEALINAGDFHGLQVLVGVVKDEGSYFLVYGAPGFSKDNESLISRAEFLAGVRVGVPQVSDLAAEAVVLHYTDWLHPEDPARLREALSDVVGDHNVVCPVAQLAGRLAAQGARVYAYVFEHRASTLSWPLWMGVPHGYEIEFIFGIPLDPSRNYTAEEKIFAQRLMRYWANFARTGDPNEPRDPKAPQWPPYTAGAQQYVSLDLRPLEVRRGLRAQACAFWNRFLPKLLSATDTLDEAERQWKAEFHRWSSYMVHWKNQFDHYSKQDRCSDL
pIC50: −log10 of the molar value.
Where pIC50 equals or exceeds 6, the correct label is t; where it does not, the label is f.

Examples with answers:
INSERT INTO assay_data (smiles_structure, answer_label) VALUES
  ('CN(CCCCCCCCN1C(=O)c2ccccc2C1=O)Cc1ccccc1F', 't'),
  ('CN(CCCCCCN1C(=O)c2ccccc2C1=O)Cc1ccccc1F', 'f');

Incoming: Is pIC50 for `CN(CCCCCN1C(=O)c2ccccc2C1=O)Cc1cccc(Cl)c1` at or above 6?
Outgoing: t

###

Reported IC50, Acetylcholinesterase (Homo sapiens).
Kindly answer with a numeric value in nM, unit omitted.

Worked cases, IC50 given:
INSERT INTO measurements (smiles_structure, tgt, endpoint_name, value_observed) VALUES
  ('CN(CCCCCCCCN1C(=O)c2ccccc2C1=O)Cc1cccc(Cl)c1', 'Acetylcholinesterase (Homo sapiens)', 'IC50', 1040),
  ('CN(CCCCCCCN1C(=O)c2ccccc2C1=O)Cc1ccccc1', 'Acetylcholinesterase (Homo sapiens)', 'IC50', 997);

Please look at the following compound next.
Incoming: API: value(readout=IC50, system=Acetylcholinesterase (Homo sapiens)) for record `CN(CCCCCCCN1C(=O)c2ccccc2C1=O)Cc1cccc(Cl)c1`
Outgoing: 1300
